// provenance: patent US11311522B1

testProtocol: Pharmacokinetics in rhesus monkeys
Assay type: in vivo, rhesus monkey
setupConditions: male, rhesus monkey, plasma, po, 2 mg/kg; read-out: AUC24
valueType: AUC (µM·h)

INSERT INTO results (linenotation, reportedresult) VALUES
  ('C=C(C)c1ccc(CC(=O)N[C@H](C)c2ccc(OCC(F)(F)F)cn2)cc1', 0.5),
  ('C[C@@H](NC(=O)Cc1ccc(C(C)(C)O)cc1)c1ccc(OCC(F)(F)F)cn1', 36.6);

---

testProtocol: Phase 1 single-dose pharmacokinetics (PN001, PN002/Part I, PN003, PN005)
Assay type: in vivo, human
setupConditions: male, human, plasma, oral, 18 mg, PN002/Part I, males 55-75 y, single 18 mg, morning fasted; read-out: Cmax
valueType: Cmax (nM)

INSERT INTO results (linenotation, reportedresult) VALUES
  ('CC(C)c1ccc(CC(=O)N[C@H](C)c2ccc(OCC(F)(F)F)cn2)cc1', 1330);

---

testProtocol: Phase 1 multiple-dose pharmacokinetics (PN002/Part II)
setupConditions: human, plasma, 4 mg, Cmax, M02, Day 7, CX-8998 4 mg once daily
valueType: Cmax (nM)

INSERT INTO assay_data (compound, measurementunit, reportedresult) VALUES
  ('C[C@@H](NC(=O)Cc1ccc(C(C)(C)O)cc1)c1ccc(OCC(F)(F)F)cn1 [M02]', 'nM', 106);

---

testProtocol: Phase 1 multiple-dose pharmacokinetics (PN002/Part II)
setupConditions: male, human, plasma, oral
valueType: half-life

INSERT INTO measurements (linenotation, reportedresult) VALUES
  ('C[C@@H](NC(=O)Cc1ccc(C(C)(C)O)cc1)c1ccc(OCC(F)(F)F)cn1', '12.2 to 15.4 h'),
  ('C=C(C)c1ccc(CC(=O)N[C@H](C)c2ccc(OCC(F)(F)F)cn2)cc1', '19 to 25.8 h');

---

testProtocol: Phase 1 single-dose pharmacokinetics (PN001, PN002/Part I, PN003, PN005)
Format: in vivo, human
setupConditions: male, human, plasma, oral, 16 mg, PN001 Part 1, 16 mg, 1 dose; read-out: AUC0-24
valueType: AUC(0-t) (µM·h)

INSERT INTO results (compound, measurementunit, reportedresult) VALUES
  ('CC(C)c1ccc(CC(=O)N[C@H](C)c2ccc(OCC(F)(F)F)cn2)cc1 [CX-8998]', 'µM·h', 8.52);

---

testProtocol: Phase 1 single-dose pharmacokinetics (PN001, PN002/Part I, PN003, PN005)
Type: in vivo, human
setupConditions: male, human, plasma, oral, 2 mg, PN002/Part I, males 55-75 y, single 2 mg, morning fasted; read-out: Cmax
valueType: Cmax (nM)

INSERT INTO assay_data (linenotation, reportedresult) VALUES
  ('CC(C)c1ccc(CC(=O)N[C@H](C)c2ccc(OCC(F)(F)F)cn2)cc1', 198);

---

testProtocol: 90-day oral toxicology in Beagle dogs
setupConditions: female, Beagle, dog, in vivo, po, 100 mg/kg/day
valueType: AUC (µM·h)

INSERT INTO measurements (compound, valuetype, measurementunit, reportedresult) VALUES
  ('CC(CO)c1ccc(CC(=O)N[C@H](C)c2ccc(OCC(F)(F)F)cn2)cc1 (stereo partly shown) [M04]', 'AUC', 'µM·h', 8.1),
  ('C[C@@H](NC(=O)Cc1ccc(C(C)(C)O)cc1)c1ccc(OCC(F)(F)F)cn1 [M02]', 'AUC', 'µM·h', 339),
  ('CC(C(=O)O)c1ccc(CC(=O)N[C@H](C)c2ccc(OCC(F)(F)F)cn2)cc1 (stereo partly shown) [M03]', 'AUC', 'µM·h', 17.2),
  ('C=C(C)c1ccc(CC(=O)N[C@H](C)c2ccc(OCC(F)(F)F)cn2)cc1 [M01]', 'AUC', 'µM·h', 431);

---

testProtocol: In vitro plasma protein binding, rat
Format: in vitro ADME
setupConditions: rats, read-out: free fraction
valueType: fraction unbound

INSERT INTO measurements (molecule, reportedresult) VALUES
  ('C[C@@H](NC(=O)Cc1ccc(C(C)(C)O)cc1)c1ccc(OCC(F)(F)F)cn1 [M02]', 0.29),
  ('C=C(C)c1ccc(CC(=O)N[C@H](C)c2ccc(OCC(F)(F)F)cn2)cc1 [M01]', 0.004),
  ('CC(C)c1ccc(CC(=O)N[C@H](C)c2ccc(OCC(F)(F)F)cn2)cc1 [CX-8998]', 0.008);

---

testProtocol: 4-week oral toxicology in rats (with FOB)
setupConditions: male, rat, plasma, po, 2000 mg/kg/day, AUC24, Male rats, 2000 mg/kg/day oral gavage, Day 28; mean (SD)
valueType: AUC (µM·h)

INSERT INTO results (linenotation, reportedresult) VALUES
  ('CC(C)c1ccc(CC(=O)N[C@H](C)c2ccc(OCC(F)(F)F)cn2)cc1', 467);

---

testProtocol: Pharmacokinetics in rats
Assay type: in vivo, rat
setupConditions: rat, plasma, po, 10 mg/kg; single dose
valueType: bioavailability (%)

INSERT INTO assay_data (linenotation, reportedresult) VALUES
  ('CC(C)c1ccc(CC(=O)N[C@H](C)c2ccc(OCC(F)(F)F)cn2)cc1', 42);

---

systemName: hERG (Homo sapiens)
Construct: expressed in transfected cells; host or cells: CHO-K1
Sequence (Q12809 whole entry): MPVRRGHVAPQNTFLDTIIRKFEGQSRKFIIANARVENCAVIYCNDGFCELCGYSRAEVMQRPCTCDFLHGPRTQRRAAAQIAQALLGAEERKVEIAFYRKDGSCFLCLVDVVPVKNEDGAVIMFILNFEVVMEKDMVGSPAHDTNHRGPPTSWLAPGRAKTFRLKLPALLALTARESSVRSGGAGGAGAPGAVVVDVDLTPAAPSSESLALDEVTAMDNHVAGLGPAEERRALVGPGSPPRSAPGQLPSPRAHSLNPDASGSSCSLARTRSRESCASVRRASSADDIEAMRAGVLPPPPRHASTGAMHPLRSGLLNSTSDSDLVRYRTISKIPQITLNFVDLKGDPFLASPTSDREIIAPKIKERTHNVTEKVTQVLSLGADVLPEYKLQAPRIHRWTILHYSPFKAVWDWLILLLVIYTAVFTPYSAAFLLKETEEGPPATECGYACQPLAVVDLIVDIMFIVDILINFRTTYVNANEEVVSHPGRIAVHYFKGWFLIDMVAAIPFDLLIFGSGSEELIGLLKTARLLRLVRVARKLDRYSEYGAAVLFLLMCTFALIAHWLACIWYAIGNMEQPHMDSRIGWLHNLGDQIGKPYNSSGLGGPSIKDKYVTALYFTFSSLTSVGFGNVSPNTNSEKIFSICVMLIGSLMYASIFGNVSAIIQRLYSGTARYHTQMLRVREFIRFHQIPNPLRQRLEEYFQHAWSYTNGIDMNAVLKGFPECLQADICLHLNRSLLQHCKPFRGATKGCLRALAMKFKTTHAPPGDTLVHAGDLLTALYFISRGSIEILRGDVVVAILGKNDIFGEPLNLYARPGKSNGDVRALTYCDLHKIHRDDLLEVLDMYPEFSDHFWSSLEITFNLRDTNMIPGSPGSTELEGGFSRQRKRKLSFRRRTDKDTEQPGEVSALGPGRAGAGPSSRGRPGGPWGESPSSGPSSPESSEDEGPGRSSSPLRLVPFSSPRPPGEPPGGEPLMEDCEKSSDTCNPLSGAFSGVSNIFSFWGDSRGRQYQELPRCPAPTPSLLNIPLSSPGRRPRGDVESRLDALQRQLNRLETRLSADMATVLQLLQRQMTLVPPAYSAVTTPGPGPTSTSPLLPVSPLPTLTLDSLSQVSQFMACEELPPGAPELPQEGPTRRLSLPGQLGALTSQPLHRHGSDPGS
testProtocol: hERG PatchXpress assay
Format: cell-based
setupConditions: human, CHO-K1 cells expressing hERG; doses up to 30 μM
valueType: IC20 (µM)

INSERT INTO results (compound, systemname, valuetype, reportedresult) VALUES
  ('CC(C)c1ccc(CC(=O)N[C@H](C)c2ccc(OCC(F)(F)F)cn2)cc1 [CX-8998]', 'hERG (Homo sapiens)', 'IC20', 8.7);

---

testProtocol: Phase 1 multiple-dose pharmacokinetics (PN002/Part II)
setupConditions: human, plasma, 2 mg, Cmax, M01, Day 7, CX-8998 2 mg once daily
valueType: Cmax (nM)

INSERT INTO assay_data (linenotation, valuetype, measurementunit, reportedresult) VALUES
  ('C=C(C)c1ccc(CC(=O)N[C@H](C)c2ccc(OCC(F)(F)F)cn2)cc1', 'Cmax', 'nM', 76);

---

testProtocol: Pharmacokinetics in rats
Type: in vivo, rat
setupConditions: male, rat, plasma, po, 10 mg/kg; read-out: AUC24
Catalogue of molecules with associated AUC
valueType: AUC (µM·h)

INSERT INTO results (linenotation, reportedresult) VALUES
  ('C[C@@H](NC(=O)Cc1ccc(C(C)(C)O)cc1)c1ccc(OCC(F)(F)F)cn1', 10),
  ('C=C(C)c1ccc(CC(=O)N[C@H](C)c2ccc(OCC(F)(F)F)cn2)cc1', 3.7);

---

testProtocol: Phase 1 multiple-dose pharmacokinetics (PN002/Part II)
setupConditions: human, plasma, 4 mg, AUC24, M01, Day 7, CX-8998 4 mg once daily
valueType: AUC (µM·h)

INSERT INTO results (linenotation, measurementunit, reportedresult) VALUES
  ('C=C(C)c1ccc(CC(=O)N[C@H](C)c2ccc(OCC(F)(F)F)cn2)cc1', 'µM·h', 2.83);

---

testProtocol: Phase 1 multiple-dose pharmacokinetics (PN002/Part II)
setupConditions: human, plasma, 2 mg
valueType: half-life (h)

INSERT INTO results (compound, measurementunit, reportedresult) VALUES
  ('C[C@@H](NC(=O)Cc1ccc(C(C)(C)O)cc1)c1ccc(OCC(F)(F)F)cn1 [M02]', 'h', 15),
  ('C=C(C)c1ccc(CC(=O)N[C@H](C)c2ccc(OCC(F)(F)F)cn2)cc1 [M01]', 'h', 25.8);

---

testProtocol: Phase 1 multiple-dose pharmacokinetics (PN002/Part II)
setupConditions: human, plasma, 18 mg, Cmax, M01, Day 7, CX-8998 18 mg once daily
valueType: Cmax (nM)

INSERT INTO measurements (linenotation, reportedresult) VALUES
  ('C=C(C)c1ccc(CC(=O)N[C@H](C)c2ccc(OCC(F)(F)F)cn2)cc1', 865);

---

testProtocol: Phase 1 multiple-dose pharmacokinetics (PN002/Part II)
setupConditions: human, plasma, 8 mg, Cmax, M02, Day 7, CX-8998 8 mg once daily
valueType: Cmax

INSERT INTO measurements (compound, valuetype, reportedresult) VALUES
  ('C[C@@H](NC(=O)Cc1ccc(C(C)(C)O)cc1)c1ccc(OCC(F)(F)F)cn1 [M02]', 'Cmax', '219 nM');

---

testProtocol: In vitro plasma protein binding, human
Assay type: in vitro ADME
setupConditions: humans, read-out: free fraction
Catalogue of molecules with associated fraction unbound
valueType: fraction unbound

INSERT INTO results (linenotation, valuetype, boundsign, reportedresult) VALUES
  ('C=C(C)c1ccc(CC(=O)N[C@H](C)c2ccc(OCC(F)(F)F)cn2)cc1', 'fraction unbound', '<', 0.001),
  ('C[C@@H](NC(=O)Cc1ccc(C(C)(C)O)cc1)c1ccc(OCC(F)(F)F)cn1', 'fraction unbound', '=', 0.14),
  ('CC(C)c1ccc(CC(=O)N[C@H](C)c2ccc(OCC(F)(F)F)cn2)cc1', 'fraction unbound', '=', 0.004);
